Entry source: patent US20250340537A1

Biological target: H723R-pendrin (Homo sapiens, UniProt O43511, H723R)
Sequence (O43511 whole entry H723R): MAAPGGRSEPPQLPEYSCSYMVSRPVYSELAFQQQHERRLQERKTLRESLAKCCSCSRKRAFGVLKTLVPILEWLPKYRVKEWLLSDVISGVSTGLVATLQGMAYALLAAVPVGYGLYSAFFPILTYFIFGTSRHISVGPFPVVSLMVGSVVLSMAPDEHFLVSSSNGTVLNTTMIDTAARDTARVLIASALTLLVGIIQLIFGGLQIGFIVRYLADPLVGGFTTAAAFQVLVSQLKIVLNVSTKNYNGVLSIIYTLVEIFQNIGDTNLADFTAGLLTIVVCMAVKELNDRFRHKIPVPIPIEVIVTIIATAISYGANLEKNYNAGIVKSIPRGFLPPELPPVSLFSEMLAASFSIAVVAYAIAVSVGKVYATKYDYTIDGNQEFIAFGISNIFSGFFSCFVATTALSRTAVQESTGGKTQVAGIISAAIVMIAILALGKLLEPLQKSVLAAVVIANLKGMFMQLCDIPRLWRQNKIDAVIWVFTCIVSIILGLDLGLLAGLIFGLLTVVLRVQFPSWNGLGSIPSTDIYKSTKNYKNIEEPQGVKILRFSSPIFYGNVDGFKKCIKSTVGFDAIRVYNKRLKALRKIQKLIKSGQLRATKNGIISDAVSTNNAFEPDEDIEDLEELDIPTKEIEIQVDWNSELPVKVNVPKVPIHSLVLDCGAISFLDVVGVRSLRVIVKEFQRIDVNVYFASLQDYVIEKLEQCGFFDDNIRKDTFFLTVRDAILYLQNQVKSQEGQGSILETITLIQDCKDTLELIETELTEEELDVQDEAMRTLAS
Assay: YFP fluorescence quenching assay (Cl−/I− exchange activity of pendrin)
Conditions: PANC-1 cells stably expressing human H723R-pendrin and YFP-F46L/H148Q/I152L; compound incubation 20-24 hours; iodide influx
Source text: Halide sensor YFP F46L/H148Q/I152L is quenched by halide ion like Iodide. When such YFP is expressed in a cell, it expresses in the cytoplasm. […] At this time, when treated with a high-concentration iodide solution outside the cell, iodide enters the cell due to the Cl−/I− exchange activity of pendrin, and the fluorescence of the halide sensor YFP decreases. […]
Each record here notes measured EC50.
Measured Endpoint: EC50

1) COc1ccc(-c2ccnc(C3=C(N)N(CC4CCCC4)CC3=O)n2)cc1OC : > 10 µM
2) COc1ccc(-c2cncc(C3=C(N)N(CC4CCNC4)CC3=O)c2)cc1OC (stereo not shown) : > 10 µM
3) NC1=C(c2cncc(-c3ccc(O)c(O)c3)c2)C(=O)CN1CC1CCNC1 (stereo not shown) : > 10 µM
4) NC1=C(c2cncc(-c3ccc(O)c(OC4CCC4)c3)n2)C(=O)CN1CC1CCCC1 : > 10 µM
